Test: Trough plasma concentration in Sprague-Dawley rat assessed as atazanavir level at 3 mg/kg equiv of atazanavir administered orally measured after 24 hrs
Assay type: ADME, organism-based
Details: in vivo, po, read-out: Cmin
Experimental Readout: concentration (nM)

I = COC(=O)N[C@H](C(=O)N[C@@H](Cc1ccccc1)[C@H](CN(Cc1ccc(-c2ccccn2)cc1)NC(=O)[C@@H](NC(=O)OC)C(C)(C)C)OC(=O)OC(C)OC(=O)[C@H](C(C)C)N(C)C)C(C)(C)C (stereo in doubt; 22)
II = COC(=O)N[C@H](C(=O)N[C@@H](Cc1ccccc1)[C@H](CN(Cc1ccc(-c2ccccn2)cc1)NC(=O)[C@@H](NC(=O)OC)C(C)(C)C)OC(=O)OCOC(=O)[C@H](C(C)C)N(C)C)C(C)(C)C
III = COC(=O)N[C@H](C(=O)N[C@@H](Cc1ccccc1)[C@H](CN(Cc1ccc(-c2ccccn2)cc1)NC(=O)[C@@H](NC(=O)OC)C(C)(C)C)OC(=O)OC(C)OC(=O)[C@@H](C(C)C)N(C)C)C(C)(C)C (stereo in doubt; 24)
Enquiry: With regard to concentration, arrange the entries in ascending order, please. Put the labels in the requested order and list them out.
Return: II, I, III
(II: 1.9 nM, I: 16.7 nM, III: 24 nM)

---

Test: Solubility of compound in acetate buffer at pH 4
Type: physicochemical
Conditions: acetate buffer, read-out: solubility
Each item that follows carries a reported solubility.

Enquiry: Tell me the measured solubility of COC(=O)N[C@H](C(=O)N[C@@H](Cc1ccccc1)[C@@H](O)CN(Cc1ccc(-c2ccccn2)cc1)NC(=O)[C@@H](NC(=O)OC)C(C)(C)C)C(C)(C)C , please.
Return: < 1 µg/mL

Enquiry: solubility lookup needed for COC(=O)N[C@H](C(=O)N[C@@H](Cc1ccccc1)[C@H](CN(Cc1ccc(-c2ccccn2)cc1)NC(=O)[C@@H](NC(=O)OC)C(C)(C)C)OC(=O)OCOC(=O)[C@@H](C(C)C)N(C)C)C(C)(C)C , thanks.
Return: > 500 µg/mL

---

Assay: AUClast in Sprague-Dawley rat assessed as atazanavir level at 3 mg/kg equiv of atazanavir administered orally
Type: ADME, organism-based
Design: route oral, time 0 - last, dose 3 mg/kg(equiv)
Settings: in vivo, po
Experimental Readout: AUClast (µM·h)

Study these solved cases before continuing.
COC(=O)N[C@H](C(=O)N[C@@H](Cc1ccccc1)[C@H](CN(Cc1ccc(-c2ccccn2)cc1)NC(=O)[C@@H](NC(=O)OC)C(C)(C)C)OC(=O)OC(C)OC(=O)[C@@H](C(C)C)N(C)C)C(C)(C)C (stereo in doubt; 24)
1.737
COC(=O)N[C@H](C(=O)N[C@@H](Cc1ccccc1)[C@H](CN(Cc1ccc(-c2ccccn2)cc1)NC(=O)[C@@H](NC(=O)OC)C(C)(C)C)OC(=O)OCOC(=O)[C@H](C(C)C)N(C)C)C(C)(C)C
0.883
COC(=O)N[C@H](C(=O)N[C@@H](Cc1ccccc1)[C@H](CN(Cc1ccc(-c2ccccn2)cc1)NC(=O)[C@@H](NC(=O)OC)C(C)(C)C)OC(=O)OC(C)OC(=O)[C@@H](N)C(C)C)C(C)(C)C (stereo in doubt; 18)
1.013

1 = COC(=O)N[C@H](C(=O)N[C@@H](Cc1ccccc1)[C@H](CN(Cc1ccc(-c2ccccn2)cc1)NC(=O)[C@@H](NC(=O)OC)C(C)(C)C)OC(=O)OCOC(=O)[C@@H](C(C)C)N(C)C)C(C)(C)C
2 = COC(=O)N[C@H](C(=O)N[C@@H](Cc1ccccc1)[C@H](CN(Cc1ccc(-c2ccccn2)cc1)NC(=O)[C@@H](NC(=O)OC)C(C)(C)C)OC(=O)OC(C)OC(=O)[C@H](C(C)C)N(C)C)C(C)(C)C (stereo in doubt; 21)
3 = COC(=O)N[C@H](C(=O)N[C@@H](Cc1ccccc1)[C@H](CN(Cc1ccc(-c2ccccn2)cc1)NC(=O)[C@@H](NC(=O)OC)C(C)(C)C)OC(=O)OC(C)OC(=O)[C@H](C(C)C)N(C)C)C(C)(C)C (stereo in doubt; 22)
Enquiry: Please order the records by their reported AUClast, lowest number first. Give the order by naming the labels one after another as requested.
Return: 1, 2, 3
(1: 0.689 µM·h, 2: 1.097 µM·h, 3: 1.958 µM·h)

---

Assay: Cmax in Sprague-Dawley rat assessed as atazanavir level at 3 mg/kg equiv of atazanavir administered orally
Assay type: ADME, organism-based
Set-up: route oral, dose 3 mg/kg(equiv)
Settings: in vivo, po
Experimental Readout: Cmax (nM)

COC(=O)N[C@H](C(=O)N[C@@H](Cc1ccccc1)[C@H](CN(Cc1ccc(-c2ccccn2)cc1)NC(=O)[C@@H](NC(=O)OC)C(C)(C)C)OC(=O)OC(C)OC(=O)[C@H](C(C)C)N(C)C)C(C)(C)C (stereo in doubt; 21)
581

a = COC(=O)N[C@H](C(=O)N[C@@H](Cc1ccccc1)[C@H](CN(Cc1ccc(-c2ccccn2)cc1)NC(=O)[C@@H](NC(=O)OC)C(C)(C)C)OC(=O)OC(C)OC(=O)[C@H](C(C)C)N(C)C)C(C)(C)C (stereo in doubt; 22)
b = COC(=O)N[C@H](C(=O)N[C@@H](Cc1ccccc1)[C@H](CN(Cc1ccc(-c2ccccn2)cc1)NC(=O)[C@@H](NC(=O)OC)C(C)(C)C)OC(=O)OCOC(=O)[C@H](C(C)C)N(C)C)C(C)(C)C
Enquiry: Hi, I'm comparing two records. Which one has the lower Cmax, a or b ? Answer with the label corresponding to your selection.
Return: a

a = COC(=O)N[C@H](C(=O)N[C@@H](Cc1ccccc1)[C@H](CN(Cc1ccc(-c2ccccn2)cc1)NC(=O)[C@@H](NC(=O)OC)C(C)(C)C)OC(=O)OC(C)OC(=O)[C@@H](N)C(C)C)C(C)(C)C (stereo in doubt; 18)
b = COC(=O)N[C@H](C(=O)N[C@@H](Cc1ccccc1)[C@H](CN(Cc1ccc(-c2ccccn2)cc1)NC(=O)[C@@H](NC(=O)OC)C(C)(C)C)OC(=O)OCOC(=O)[C@@H](C(C)C)N(C)C)C(C)(C)C
Enquiry: Could you check which of a and b has a smaller value for Cmax? Respond with the label that goes with your answer.
Return: a

---

Assay: Half life in phosphate buffer at pH 6.5
Format: physicochemical
Conditions: phosphate buffer
Experimental Readout: half-life (h)

A = COC(=O)N[C@H](C(=O)N[C@@H](Cc1ccccc1)[C@H](CN(Cc1ccc(-c2ccccn2)cc1)NC(=O)[C@@H](NC(=O)OC)C(C)(C)C)OC(=O)OCOC(=O)[C@@H](C(C)C)N(C)C)C(C)(C)C
B = COC(=O)N[C@H](C(=O)N[C@@H](Cc1ccccc1)[C@H](CN(Cc1ccc(-c2ccccn2)cc1)NC(=O)[C@@H](NC(=O)OC)C(C)(C)C)OC(=O)OCOC(=O)[C@H](C(C)C)N(C)C)C(C)(C)C
Enquiry: Returns the identifier with the smallest measured half-life among A and B . Which one? Tell me its label.
Return: A
(A: 64 h, B: 104 h)

---

Experiment: Total AUC in Sprague-Dawley rat assessed as ratio of atazanavir to parent level at 3 mg/kg equiv of atazanavir administered orally
Assay type: ADME, organism-based
Conditions: in vivo, po
Experimental Readout: Ratio AUC

1 = COC(=O)N[C@H](C(=O)N[C@@H](Cc1ccccc1)[C@H](CN(Cc1ccc(-c2ccccn2)cc1)NC(=O)[C@@H](NC(=O)OC)C(C)(C)C)OC(=O)OC(C)OC(=O)[C@H](C(C)C)N(C)C)C(C)(C)C (stereo in doubt; 22)
2 = COC(=O)N[C@H](C(=O)N[C@@H](Cc1ccccc1)[C@H](CN(Cc1ccc(-c2ccccn2)cc1)NC(=O)[C@@H](NC(=O)OC)C(C)(C)C)OC(=O)OCOC(=O)[C@H](C(C)C)N(C)C)C(C)(C)C
Enquiry: Lowest Ratio AUC? choose 1 or 2 Returns: label corresponding to the selected item.
Return: 2
(2: 7.7, 1: 92.1)

---

Assay: Relative oral bioavailability in Sprague-Dawley rat assessed as atazanavir level at 3 mg/kg equiv of atazanavir
Format: ADME, organism-based
Details: in vivo
Experimental Readout: F (%)

I = COC(=O)N[C@H](C(=O)N[C@@H](Cc1ccccc1)[C@H](CN(Cc1ccc(-c2ccccn2)cc1)NC(=O)[C@@H](NC(=O)OC)C(C)(C)C)OC(=O)OC(C)OC(=O)[C@H](C(C)C)N(C)C)C(C)(C)C (stereo in doubt; 21)
II = COC(=O)N[C@H](C(=O)N[C@@H](Cc1ccccc1)[C@H](CN(Cc1ccc(-c2ccccn2)cc1)NC(=O)[C@@H](NC(=O)OC)C(C)(C)C)OC(=O)OCOC(=O)[C@@H](C(C)C)N(C)C)C(C)(C)C
Enquiry: Please indicate which has the smaller reported F: I , or II . Reply with the label of the item you choose.
Return: II
(II: 36%, I: 58%)
